system: HS 578T breast; assay: NCI-60 one-dose screen, 48 h (100 = growth as untreated, 0 = no growth, -100 = all killed); details: 10 µM unless noted
The panel holds about 83,000 compounds, 20% with a hit somewhere; the sample as a whole holds those more often.
Experimental Readout: growth (%)
Report the figure in % without appending any unit label.

> print(dat)
                         smiles.structure  assay.value
1  O=C1C(=O)c2c(nc3ccc(Cl)cn23)-c2ccccc21        -33.8

Enquiry: Identify measured growth obtained with HS 578T breast for O=C1Nc2ccc(Cl)cc2[C@@](C#CC2CC2)(C(F)(F)F)O1 .
Return: 99.2

Enquiry: Identify measured growth obtained with HS 578T breast for Nc1ccc2c(c1)Cc1cc(Cl)c(Cl)cc1-2 .
Return: 67.9

Enquiry: Identify measured growth obtained with HS 578T breast for N#Cc1c(NC(=O)c2ccco2)[n+]([O-])c2cc(Cl)c(Cl)cc2[n+]1[O-] .
Return: 84.4

---

Listing of recorded growth by entry.
test system: RXF 393 renal; experiment: NCI-60 one-dose screen, 48 h (100 = growth as untreated, 0 = no growth, -100 = all killed); details: 10 µM unless noted
This is part of a sample that, as a whole, favours compounds with a hit. Of some 83,000 tested, about 20% had one in any assay. Calls of active or inactive are those of the source. Rule for the calls: active = growth percent below 10; inactive = the rest.

Compound	Experimental Readout	Assay Value
c1ccc(CN=C(NCc2ccccc2)NCc2ccccc2)cc1	growth	91.7% (inactive)
C[C@H](C(=O)N[C@@H](Cc1ccc(-c2ccccc2)cc1)C(=O)NC1CC(C)(C)NC(C)(C)C1)c1ccc(-c2ccccc2)c(F)c1	growth	-55.6% (active)
CC1=C([Se]CC(OC(=O)[C@@H](CSSC(C)(C)C)NC(=O)C(C)(C)C)C(=O)NCCCCCC(=O)OCc2ccccc2)C(=O)c2ccccc2C1=O (some centres undefined)	growth	-33.5% (active)

Enquiry: Identify measured growth obtained with RXF 393 renal for CCOC(=O)Nc1cc(-c2ccc(C)c(NS(C)(=O)=O)c2)nn2c(C)nnc12 .
Return: -8% (active)

---

test system: UACC-257 melanoma; assay: NCI-60 one-dose screen, 48 h; conditions: 10 µM unless noted
Compounds without any hit were thinned out: in the full panel of roughly 83,000, 20% have a hit. The source made the active and inactive calls. How the source made its calls: active means growth percent below 10; inactive means the rest.
Can you answer with just one of these options? yes (1) for active, no (0) for inactive

Consider the worked cases shown below.
Compound	Assayed Target	Label
CC1CN(C2CCCCC2)C(=O)NC1=O (configuration not stated)	UACC-257 melanoma	no (0)
CCCCCc1c(C)[nH]c(/C=C2\N=C(c3ccc[nH]3)C=C2Oc2ccccc2)c1C	UACC-257 melanoma	yes (1)
O=C(COc1cccc(/C=C2\Oc3ccc4ccccc4c3C2=O)c1)c1ccc(Cl)cc1	UACC-257 melanoma	no (0)
C#C[C@]1(O)CCC2C3CCc4cc(O)ccc4C3CC[C@@]21C (some centres not stated)	UACC-257 melanoma	no (0)
O=C(NC1CCCCC1)c1ccc(Nc2ncnc3c2cnn3-c2ccccc2)cc1	UACC-257 melanoma	no (0)

Enquiry: What did the test return for COc1ccc(C2=NN(C(C)=O)C(c3c(C)nn(-c4ccccc4)c3N3CCOCC3)C2)cc1 (configuration not stated) ?
Return: no (0)

Enquiry: What did the test return for O=[N+]([O-])c1ccc(N=Nc2c(Cl)cc(O)cc2Cl)cc1 ?
Return: yes (1)

Enquiry: What did the test return for Cc1n(Cc2ccc3ccccc3c2)c2ccccc2[n+]1Cc1ccc2ccccc2c1 ?
Return: yes (1)
